# target.under.test: hPTP1B1-400 (Homo sapiens, UniProt P18031)
# Sequence (P18031 1-400): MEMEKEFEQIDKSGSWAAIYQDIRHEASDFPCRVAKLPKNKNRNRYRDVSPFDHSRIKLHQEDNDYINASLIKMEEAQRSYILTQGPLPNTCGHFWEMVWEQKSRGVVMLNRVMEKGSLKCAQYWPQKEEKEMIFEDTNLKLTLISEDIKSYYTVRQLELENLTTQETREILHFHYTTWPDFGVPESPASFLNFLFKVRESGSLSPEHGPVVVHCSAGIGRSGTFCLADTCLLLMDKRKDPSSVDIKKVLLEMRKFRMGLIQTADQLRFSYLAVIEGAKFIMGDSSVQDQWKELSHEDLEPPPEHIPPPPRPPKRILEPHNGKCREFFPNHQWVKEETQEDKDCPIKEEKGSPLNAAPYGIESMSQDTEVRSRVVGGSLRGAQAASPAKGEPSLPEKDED
# measurement.notes: PTP1B inhibition assay (spectrophotometric, 4-nitrophenyl phosphate)
# Assay type: biochemical
# settings: enzyme 66 nM, 4-NP 0.125 mM, Tris-HCl pH 6.8, 20 min, room temperature; read-out: IC50
Collected IC50 values appear next to each entry.
measured.endpoint: IC50 (µM)

[[record]]
compound = "CC(C)(O)C(O)C1CC(C2CCC3(C)C4=CCC5C(C)(C)C(=O)CCC5(C)C4CCC23C)C(O)O1 (stereo not shown)"
target_under_test = "hPTP1B1-400 (Homo sapiens, UniProt P18031)"
value_reported = 92.1

[[record]]
compound = "CN1C(=O)c2ccccc2-n2c(nc3ccccc3c2=O)[C@@H]1Cc1ccccc1"
target_under_test = "hPTP1B1-400 (Homo sapiens, UniProt P18031)"
value_reported = 424

[[record]]
compound = "COc1cc(=O)oc2c(O[C@@H]3O[C@H](CO)[C@@H](O)[C@H](O)[C@H]3O)ccc(C)c12"
target_under_test = "hPTP1B1-400 (Homo sapiens, UniProt P18031)"
value_reported = 166

[[record]]
compound = "CC(=O)OC[C@H]1O[C@@H](Oc2cc(O)cc3oc(=O)cc(-c4ccc(O)cc4)c23)[C@H](O)[C@@H](O)[C@H]1O"
target_under_test = "hPTP1B1-400 (Homo sapiens, UniProt P18031)"
value_reported = 349

[[record]]
compound = "Oc1cccc(CCc2ccc3c(c2)OCO3)c1"
target_under_test = "hPTP1B1-400 (Homo sapiens, UniProt P18031)"
value_reported = 662

[[record]]
compound = "COc1c2c(cc3oc(C)cc(=O)c13)OC(C)(C)[C@H](O)C2 [Compound 94, (+)-5-Methoxyhamaudol]"
target_under_test = "hPTP1B1-400 (Homo sapiens, UniProt P18031)"
value_reported = 298

[[record]]
compound = "COc1c(O)cc2cc(OC)c3cc(O)ccc3c2c1OC"
target_under_test = "hPTP1B1-400 (Homo sapiens, UniProt P18031)"
value_reported = 431


----------
# target.under.test: hPTP1B1-400 (Homo sapiens)
# Sequence (P18031 1-400): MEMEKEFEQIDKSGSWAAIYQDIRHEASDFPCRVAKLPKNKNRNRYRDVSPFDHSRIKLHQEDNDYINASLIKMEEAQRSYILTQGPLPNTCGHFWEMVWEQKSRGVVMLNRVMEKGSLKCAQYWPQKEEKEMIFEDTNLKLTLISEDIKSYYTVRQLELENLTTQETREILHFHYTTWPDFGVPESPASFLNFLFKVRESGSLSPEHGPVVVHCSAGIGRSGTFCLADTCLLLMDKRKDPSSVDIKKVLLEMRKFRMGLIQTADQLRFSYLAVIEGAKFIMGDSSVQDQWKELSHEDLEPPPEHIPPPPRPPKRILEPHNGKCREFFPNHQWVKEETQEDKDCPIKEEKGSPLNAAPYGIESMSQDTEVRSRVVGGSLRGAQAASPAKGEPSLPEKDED
# measurement.notes: PTP1B inhibition assay (spectrophotometric, 4-nitrophenyl phosphate)
# Format: biochemical
# settings: negative log of the IC50 in Molar; read-out: pIC50 (converted)
MET if IC50 is below 300 µM. NOT MET if not; exact matches included in NOT MET.

[[record]]
compound = "CC(=CCCC(C)C1CCC2(C)C3=CCC4C(C)(C)C(=O)CCC4(C)C3CCC12C)C(=O)O (stereo not shown)"
classification = "MET"

[[record]]
compound = "CCCCCCCCCCCCCCCCCCCCOC(=O)C=Cc1ccc(O)c(OC)c1 [Compound 43, Eicosyl 4-hydroxy-3-methoxy-cinnamate]"
classification = "NOT MET"

[[record]]
compound = "COc1c(O)cc2ccc3cccc(O)c3c2c1OC"
classification = "MET"

[[record]]
compound = "CC1(C)C=Cc2cc3ccc(=O)oc3cc2O1"
classification = "NOT MET"

[[record]]
compound = "C[C@H]1C(=O)CC[C@@H]2[C@]1(C)CC[C@H]1[C@@]2(C)CC[C@@]2(C)[C@@H]3CC(C)(C)CC[C@]3(CO)CC[C@]12C"
classification = "MET"

[[record]]
compound = "COc1c(O)cc2cc(OC)c3cc(O)ccc3c2c1OC"
classification = "NOT MET"


----------
# target.under.test: hPTP1B1-400 (Homo sapiens)
# Sequence (P18031 1-400): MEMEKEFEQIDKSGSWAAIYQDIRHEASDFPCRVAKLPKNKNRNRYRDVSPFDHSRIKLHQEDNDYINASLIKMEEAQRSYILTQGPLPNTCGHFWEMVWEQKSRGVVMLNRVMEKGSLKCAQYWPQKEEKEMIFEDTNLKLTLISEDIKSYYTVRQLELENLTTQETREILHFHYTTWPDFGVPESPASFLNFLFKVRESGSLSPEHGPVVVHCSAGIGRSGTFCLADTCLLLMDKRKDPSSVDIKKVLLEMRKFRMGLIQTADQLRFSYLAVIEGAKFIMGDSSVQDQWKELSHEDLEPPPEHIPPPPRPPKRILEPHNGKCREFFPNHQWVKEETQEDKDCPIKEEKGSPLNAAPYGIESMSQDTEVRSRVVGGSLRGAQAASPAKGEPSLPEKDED
# measurement.notes: PTP1B inhibition assay (spectrophotometric, 4-nitrophenyl phosphate)
# Format: biochemical
# settings: Hill1 model fit, Origin 8.0; axis C (mM); read-out: k of the IC50 curve
Collected IC50 values appear next to each entry.
measured.endpoint: IC50 (mM)

[[record]]
molecule = "O=C(O[C@@H]1Cc2c(O)cc(O)cc2O[C@@H]1c1ccc(O)c(O)c1)c1cc(O)c(O)c(O)c1 [Compound 82, (-)-Epicatechin 3-O-gallate]"
measured_endpoint = "IC50"
value_reported = 0.142

[[record]]
molecule = "CC(=O)OC[C@H]1O[C@@H](Oc2cc(O)cc3oc(=O)cc(-c4ccc(O)cc4)c23)[C@H](O)[C@@H](O)[C@H]1O [Compound 18]"
measured_endpoint = "IC50"
value_reported = 0.349

[[record]]
molecule = "COc1ccc([C@H]2OC[C@H]3[C@@H]2CO[C@@H]3c2ccc3c(c2OC)OCO3)cc1OC [Compound 47, 2'-Methoxykobusin]"
measured_endpoint = "IC50"
value_reported = 0.125

[[record]]
molecule = "CC(=O)OC(C)(C)/C=C/C(=O)[C@](C)(O)[C@H]1[C@H](O)C[C@@]2(C)[C@@H]3CC=C4[C@@H](C[C@H](O[C@@H]5O[C@H](CO)[C@@H](O)[C@H](O)[C@H]5O)C(=O)C4(C)C)[C@]3(C)C(=O)C[C@]12C [Compound 15, Arvenin I]"
measured_endpoint = "IC50"
value_reported = 0.564

[[record]]
molecule = "CC1(C)C=Cc2cc3ccc(=O)oc3cc2O1 [Compound 93, Xanthyletin]"
measured_endpoint = "IC50"
value_reported = 0.865

[[record]]
molecule = "COc1c2c(cc3oc(C)cc(=O)c13)OC(C)(C)[C@H](O)C2 [Compound 94, (+)-5-Methoxyhamaudol]"
measured_endpoint = "IC50"
value_reported = 0.298

[[record]]
molecule = "CC(=O)OCC(C)C1CCC2(C)C1CCC1(C)C2CCC2C3(C)CCCC(C)(C)C3CCC21C (stereo not drawn) [Compound 90, 21-α-H-Hopane acetate]"
measured_endpoint = "IC50"
value_reported = 0.884


----------
# target.under.test: PTP1B (Homo sapiens, UniProt P18031)
# measurement.notes: Kinetic analysis of PTP1B inhibition
# Assay type: biochemical
# settings: mixed type model (Eq. 3); read-out: KIU
measured.endpoint: Ki (µM)

[[record]]
item_smiles = "COc1c(O)cc2ccc3cccc(O)c3c2c1OC"
measured_endpoint = "Ki"
uom = "µM"
value_reported = 110


----------
# target.under.test: hPTP1B1-400 (Homo sapiens, UniProt P18031)
# measurement.notes: PTP1B inhibition assay (spectrophotometric, 4-nitrophenyl phosphate)
# Assay type: biochemical
# settings: absolute pIC50 difference against ursolic acid
Collected ΔA, activity difference between UA and the compound values appear next to each entry.
measured.endpoint: ΔA, activity difference between UA and the compound

[[record]]
compound = "COc1cc(O)cc(CCc2cccc(O)c2)c1 [Compound 34, Batatasin III]"
target_under_test = "hPTP1B1-400 (Homo sapiens, UniProt P18031)"
value_reported = 1.1

[[record]]
compound = "CC(=O)OC(C)(C)/C=C/C(=O)[C@](C)(O)[C@H]1[C@H](O)C[C@@]2(C)[C@@H]3CC=C4[C@@H](C[C@H](O[C@@H]5O[C@H](CO)[C@@H](O)[C@H](O)[C@H]5O)C(=O)C4(C)C)[C@]3(C)C(=O)C[C@]12C [Compound 15, Arvenin I]"
target_under_test = "hPTP1B1-400 (Homo sapiens, UniProt P18031)"
value_reported = 1.4

[[record]]
compound = "CC[C@H](/C=C/[C@@H](C)[C@H]1CC[C@H]2C3=CC[C@H]4C[C@@H](OC(C)=O)CC[C@]4(C)[C@H]3CC[C@]12C)C(C)C [Compound 85, α-Spinasterol acetate]"
target_under_test = "hPTP1B1-400 (Homo sapiens, UniProt P18031)"
value_reported = 1.1

[[record]]
compound = "O=C(OCC1OC(Oc2c(-c3ccc(O)c(O)c3)oc3cc(O)cc(O)c3c2=O)C(O)C(O)C1O)c1ccccc1 (centres unmarked) [Compound 8]"
target_under_test = "hPTP1B1-400 (Homo sapiens, UniProt P18031)"
value_reported = 0.6

[[record]]
compound = "COc1c(O)cc2cc(OC)c3cc(O)ccc3c2c1OC [Compound 41, Gymnopusin]"
target_under_test = "hPTP1B1-400 (Homo sapiens, UniProt P18031)"
value_reported = 1.3

[[record]]
compound = "COC(=O)/C(C)=C\\CC[C@H](C)[C@@H]1CC[C@]2(C)C3=CCC4C(C)(C)C(=O)CC[C@]4(C)C3CC[C@@]12C (some centres unmarked) [Compound 86, Methyl ester of masticadienonic acid]"
target_under_test = "hPTP1B1-400 (Homo sapiens, UniProt P18031)"
value_reported = 1.2

[[record]]
compound = "O=C1C[C@@H](c2ccccc2)Oc2cc(O)cc(O)c21 [Compound 53, Pinocembrin]"
target_under_test = "hPTP1B1-400 (Homo sapiens, UniProt P18031)"
value_reported = 1.1

[[record]]
compound = "C=C(C)[C@H]1COc2c(C)cc3oc4c(C[C@H](O)C(C)(C)O)ccc(O)c4c(=O)c3c2[C@@H]1O [Compound 7, Tajixanthone hydrate]"
target_under_test = "hPTP1B1-400 (Homo sapiens, UniProt P18031)"
value_reported = 0.6

[[record]]
compound = "C=CC(C)(C)C12CC3(O)c4nc5ccccc5c(=O)n4C(C(C)C)C(=O)N3C1N(C(C)=O)c1ccccc12 (centres unmarked) [Compound 96, Albolutein A]"
target_under_test = "hPTP1B1-400 (Homo sapiens, UniProt P18031)"
value_reported = -0.1

[[record]]
compound = "COc1cc(OC2OC(CO)C(O)C(O)C2O)c2c(-c3ccc(O)c(O)c3)cc(=O)oc2c1 (centres unmarked) [Compound 2]"
target_under_test = "hPTP1B1-400 (Homo sapiens, UniProt P18031)"
value_reported = 0.3

[[record]]
compound = "COc1cc(C)c2c(=O)c3c(O)cc(OC)cc3oc2c1 [Compound 9, Lichexanthone]"
target_under_test = "hPTP1B1-400 (Homo sapiens, UniProt P18031)"
value_reported = 0.6

[[record]]
compound = "C=CC(C)(C)[C@@]12Nc3ccccc3[C@]1(O)C[C@@]1(O)c3nc4ccccc4c(=O)n3[C@@H](C(C)C)C(=O)N12 [Compound 97, Albolutein B]"
target_under_test = "hPTP1B1-400 (Homo sapiens, UniProt P18031)"
value_reported = 0.1

[[record]]
compound = "C=C1C(=O)O[C@@H]2C[C@@]3(C)CCC=C(C)[C@@H]3C[C@H]12 [Compound 32, Isoalloalantolactone]"
target_under_test = "hPTP1B1-400 (Homo sapiens, UniProt P18031)"
value_reported = 1.3

[[record]]
compound = "O=c1c(O[C@@H]2O[C@H](CO)[C@H](O)[C@H](O)[C@H]2O)c(-c2ccc(O)cc2)oc2cc(O)cc(O)c12 [Compound 51, Trifolin]"
target_under_test = "hPTP1B1-400 (Homo sapiens, UniProt P18031)"
value_reported = 1.6

[[record]]
compound = "Oc1cccc(CCc2ccc3c(c2)OCO3)c1 [Compound 25]"
target_under_test = "hPTP1B1-400 (Homo sapiens, UniProt P18031)"
value_reported = 1.5

[[record]]
compound = "CC(=O)OC[C@H]1O[C@@H](Oc2cc(O)cc3oc(=O)cc(-c4ccc(O)cc4)c23)[C@H](O)[C@@H](O)[C@H]1O [Compound 18]"
target_under_test = "hPTP1B1-400 (Homo sapiens, UniProt P18031)"
value_reported = 1.2

[[record]]
compound = "O=C(O[C@@H]1Cc2c(O)cc(O)cc2O[C@@H]1c1ccc(O)c(O)c1)c1cc(O)c(O)c(O)c1 [Compound 82, (-)-Epicatechin 3-O-gallate]"
target_under_test = "hPTP1B1-400 (Homo sapiens, UniProt P18031)"
value_reported = 0.8

[[record]]
compound = "COc1c2c(cc3oc(C)cc(=O)c13)OC(C)(C)[C@H](O)C2 [Compound 94, (+)-5-Methoxyhamaudol]"
target_under_test = "hPTP1B1-400 (Homo sapiens, UniProt P18031)"
value_reported = 1.1

[[record]]
compound = "COc1cc(=O)oc2c(O[C@@H]3O[C@H](CO)[C@@H](O)[C@H](O)[C@H]3O)ccc(C)c12 [Compound 63]"
target_under_test = "hPTP1B1-400 (Homo sapiens, UniProt P18031)"
value_reported = 0.9

[[record]]
compound = "CC(C)(O)CCC(=O)[C@](C)(O)[C@H]1[C@H](O)C[C@@]2(C)[C@@H]3CC=C4[C@@H](C[C@H](O)[C@@H](O[C@@H]5O[C@H](CO)[C@@H](O)[C@H](O)[C@H]5O)C4(C)C)[C@]3(C)C(=O)C[C@]12C [Compound 14]"
target_under_test = "hPTP1B1-400 (Homo sapiens, UniProt P18031)"
value_reported = 1.2

